Test system: HIV-1 (H9/IIIB strain)
assaySummary: Multiple round HIV-1 infection assay in MT4-GFP cells (wild type cell assay, Viking)
Format: cell-based
conditions: 0% NHS condition; MT4-GFP cells infected with HIV-1 H9/IIIB; inhibition of reproductive ratio R0, ~48 h and ~72 h post-infection; read-out: WILD TYPE CELL ASSAY Viking IP (0% NHS)
Procedure: Assessing Antiviral Potency in a Multiple Round HIV-1 Infection Assay The antiviral activity of the Examples herein was assessed in an assay that measures the rate of replication of HIV in cell culture, and performed according to the following procedure. HIV-1 replication was monitored using MT4-gag-GFP clone D3 (hereafter designated MT4-GFP), which are MT-4 cells modified to harbor a GFP reporter gene, the expression of which is dependent on the HIV-1 expressed proteins tat and rev. […]
observedProperty: IC50
State the value with its unit after it.

Problem: Please give the measured IC50 for this compound: CCN1C(=O)c2c(O)c(=O)c(C(=O)NCc3c(F)ccc(F)c3F)c3n2N(CC3O)C1C (single isomer, unassigned) [Compound 82]
Solution: 2.2 nM

Problem: Please give the measured IC50 for this compound: CC1N(C)C(=O)c2c(O)c(=O)c(C(=O)NCc3c(F)cc(F)cc3F)c3n2N1CC3O (single isomer, unassigned) [Compound 18]
Solution: 1.6 nM

Problem: Please give the measured IC50 for this compound: CC1N(C)C(=O)c2c(O)c(=O)c(C(=O)NCc3c(F)ccc(F)c3F)c3n2N1CC3O (single isomer, unassigned) [Compound 22]
Solution: 2.3 nM

Problem: Please give the measured IC50 for this compound: COCCN1CN2CC(O)c3c(C(=O)NCc4c(F)ccc(Cl)c4F)c(=O)c(O)c(n32)C1=O (stereo not shown) [Compound 44]
Solution: 3.1 nM

Problem: Please give the measured IC50 for this compound: CCN1CN2CC(O)c3c(C(=O)NCc4ccc(F)cc4F)c(=O)c(O)c(n32)C1=O (stereo not shown) [Compound 58]
Solution: 4 nM

Problem: Please give the measured IC50 for this compound: CN1CN2CC(O)c3c(C(=O)NCc4ccc(F)cc4)c(=O)c(O)c(n32)C1=O (stereo not shown) [Compound 6]
Solution: 3 nM

Problem: Please give the measured IC50 for this compound: CCN1CN2CC(O)c3c(C(=O)NCc4c(F)ccc(Cl)c4F)c(=O)c(O)c(n32)C1=O (stereo not shown) [Compound 53]
Solution: 1.1 nM

====

Test system: HIV-1 (H9/IIIB strain)
assaySummary: Multiple round HIV-1 infection assay in MT4-GFP cells (wild type cell assay, Viking)
Assay type: cell-based
conditions: 0% NHS condition; MT4-GFP cells infected with HIV-1 H9/IIIB; inhibition of reproductive ratio R0, ~48 h and ~72 h post-infection; read-out: WILD TYPE CELL ASSAY Viking IP (0% NHS)
Could you please mark Yes for values of IC50 below 5 nM and No for values at or above it?

Problem: Lab log: compare recorded IC50 with 5 nM; is it strictly lower for CCN1C(=O)c2c(O)c(=O)c(C(=O)NCc3ccc(C(F)F)cc3)c3n2N(CC3O)C1C (stereo not shown) [Compound 75] ?
Solution: No

Problem: Lab log: compare recorded IC50 with 5 nM; is it strictly lower for CCC1N(C)C(=O)c2c(O)c(=O)c(C(=O)NCc3c(F)cc(F)cc3F)c3n2N1CC3O (stereo not shown) [Compound 36] ?
Solution: Yes

Problem: Lab log: compare recorded IC50 with 5 nM; is it strictly lower for CC1N(C)C(=O)c2c(O)c(=O)c(C(=O)NCc3c(F)cc(F)cc3F)c3n2N1CC3O (stereo not shown) [Compound 20] ?
Solution: Yes

Problem: Lab log: compare recorded IC50 with 5 nM; is it strictly lower for CCN1C(=O)c2c(O)c(=O)c(C(=O)NCc3c(F)ccc(Cl)c3F)c3n2N(CC3O)C1C (single isomer, unassigned) [Compound 70] ?
Solution: Yes

Problem: Lab log: compare recorded IC50 with 5 nM; is it strictly lower for CCN1C(=O)c2c(O)c(=O)c(C(=O)NCc3ccc(F)cc3F)c3n2N(CC3O)C1C (single isomer, unassigned) [Compound 90] ?
Solution: Yes

Problem: Lab log: compare recorded IC50 with 5 nM; is it strictly lower for CCN1CN2CC(O)c3c(C(=O)NCc4ccc(F)cc4)c(=O)c(O)c(n32)C1=O (stereo not shown) [Compound 62] ?
Solution: No

Problem: Lab log: compare recorded IC50 with 5 nM; is it strictly lower for CCN1CN2CC(O)c3c(C(=O)NCc4c(F)ccc(Cl)c4F)c(=O)c(O)c(n32)C1=O (stereo not shown) [Compound 54] ?
Solution: Yes

====

Test system: HIV-1 (H9/IIIB strain)
assaySummary: Multiple round HIV-1 infection assay in MT4-GFP cells (wild type cell assay, Viking)
Format: cell-based
conditions: 0% NHS condition; MT4-GFP cells infected with HIV-1 H9/IIIB; inhibition of reproductive ratio R0, ~48 h and ~72 h post-infection; read-out: WILD TYPE CELL ASSAY Viking IP (0% NHS)
observedProperty: log10(IC50) (log10 of the value in nM)
The common logarithm of IC50 in nM is what is listed.

Problem: Please give the measured log10(IC50) for this molecule: CCN1C(=O)c2c(O)c(=O)c(C(=O)NCc3ccc(C(F)(F)F)cc3)c3n2N(CC3O)C1C (single isomer, unassigned) [Compound 77]
Solution: 2.41

Problem: Please give the measured log10(IC50) for this molecule: CC1N(C)C(=O)c2c(O)c(=O)c(C(=O)NCc3c(F)ccc(F)c3F)c3n2N1CC3O (stereo not shown) [Compound 24]
Solution: 0.18

Problem: Please give the measured log10(IC50) for this molecule: CCN1CN2CC(O)c3c(C(=O)NCc4ccccc4F)c(=O)c(O)c(n32)C1=O (stereo not shown) [Compound 63]
Solution: 0.20

Problem: Please give the measured log10(IC50) for this molecule: CCN1CN2CC(O)c3c(C(=O)NCc4cccc(Cl)c4F)c(=O)c(O)c(n32)C1=O (stereo not shown) [Compound 51]
Solution: 0.32

Problem: Please give the measured log10(IC50) for this molecule: CCN1C(=O)c2c(O)c(=O)c(C(=O)NCc3ccc(F)cc3)c3n2N(CC3O)C1C (single isomer, unassigned) [Compound 86]
Solution: 0.11

Problem: Please give the measured log10(IC50) for this molecule: CCN1C(=O)c2c(O)c(=O)c(C(=O)NCc3ccc(F)cc3F)c3n2N(CC3O)C1C (stereo not shown) [Compound 92]
Solution: 0.23

Problem: Please give the measured log10(IC50) for this molecule: CN1C(=O)c2c(O)c(=O)c(C(=O)NCc3ccc(F)cc3F)c3n2N(CC3O)C12CCOC2 (stereo not shown) [Compound 114]
Solution: 0.28
